- Tested system: Dual specificity protein kinase TTK (Homo sapiens)
- Method summary: Inhibition of glioblastoma patient derived MPS1
Reported endpoint: IC50 (nM)
Your answer is read as nM, so omit the unit and give the number.

Query: I am curious: what IC50 value has been reported for COc1cc(N2CCC(O)CC2)ccc1Nc1nc(Nc2ccccc2S(=O)(=O)C(C)C)c2nc[nH]c2n1 ?
Reply: 50

----------
- Method summary: Half life in mouse xenografted with human A2780 cells at 90 mg/kg, po daily administered for 7 consecutive days
- Type: ADME, organism-based
- Experimental parameters: in vivo
Reported endpoint: half-life (h)
Number only, in h; omit the unit.

Query: # half-life lookup, item CCc1cccc(CC)c1NC(=O)c1nn(C)c2c1CCc1cnc(Nc3ccc(C(=O)NC4CCN(C)CC4)cc3OC(F)(F)F)nc1-2
Reply: 8

----------
- Method summary: Oral bioavailability in mouse xenografted with human A2780 cells at 90 mg/kg daily administered for 7 consecutive days
- Assay type: ADME, organism-based
- Experimental parameters: in vivo
Reported endpoint: bioavailability (%)
The reply should contain only the number, in %.

Query: Which bioavailability value is on record for CCc1cccc(CC)c1NC(=O)c1nn(C)c2c1CCc1cnc(Nc3ccc(C(=O)NC4CCN(C)CC4)cc3OC(F)(F)F)nc1-2 ?
Reply: 37.9

----------
- Method summary: in vivo
- Experimental parameters: mouse, ip, 150 mg/kg
Reported endpoint: AUC at 96 h

Query: Which value of AUC at 96 h has been reported for c1nc2nc(Nc3ccc(N4CCOCC4)cc3)nc(NC3CCCCC3)c2[nH]1 in the records?
Reply: 0.786 ng·h/mL

----------
- Method summary: Oral bioavailability in mouse at 5 mg/kg
- Format: ADME, organism-based
- Experimental parameters: in vivo
Reported endpoint: bioavailability (%)
API: value field is a number in %; no unit string.

Query: # query: bioavailability of entry CCc1cccc(CC)c1NC(=O)c1ccn2c1CCc1cnc(Nc3ccc(N4CCN(C)CC4)cc3OC)nc1-2
Reply: 45.2

----------
- Method summary: Cmax in mouse at 5 mg/kg, ip
- Assay type: ADME, organism-based
- Design: dose 5 mg/kg, route intraperitoneal
- Experimental parameters: in vivo
Reported endpoint: Cmax (nM)
API: value field is a number in nM; no unit string.

Query: For the compound CCc1cccc(CC)c1NC(=O)c1ccn2c1CCc1cnc(Nc3ccc(N4CCN(C)CC4)cc3OC)nc1-2 , what Cmax is on record?
Reply: 629

----------
- Tested system: Dual specificity protein kinase TTK (Homo sapiens, UniProt P33981)
- Sequence (P33981 whole entry, the tested form may be a part): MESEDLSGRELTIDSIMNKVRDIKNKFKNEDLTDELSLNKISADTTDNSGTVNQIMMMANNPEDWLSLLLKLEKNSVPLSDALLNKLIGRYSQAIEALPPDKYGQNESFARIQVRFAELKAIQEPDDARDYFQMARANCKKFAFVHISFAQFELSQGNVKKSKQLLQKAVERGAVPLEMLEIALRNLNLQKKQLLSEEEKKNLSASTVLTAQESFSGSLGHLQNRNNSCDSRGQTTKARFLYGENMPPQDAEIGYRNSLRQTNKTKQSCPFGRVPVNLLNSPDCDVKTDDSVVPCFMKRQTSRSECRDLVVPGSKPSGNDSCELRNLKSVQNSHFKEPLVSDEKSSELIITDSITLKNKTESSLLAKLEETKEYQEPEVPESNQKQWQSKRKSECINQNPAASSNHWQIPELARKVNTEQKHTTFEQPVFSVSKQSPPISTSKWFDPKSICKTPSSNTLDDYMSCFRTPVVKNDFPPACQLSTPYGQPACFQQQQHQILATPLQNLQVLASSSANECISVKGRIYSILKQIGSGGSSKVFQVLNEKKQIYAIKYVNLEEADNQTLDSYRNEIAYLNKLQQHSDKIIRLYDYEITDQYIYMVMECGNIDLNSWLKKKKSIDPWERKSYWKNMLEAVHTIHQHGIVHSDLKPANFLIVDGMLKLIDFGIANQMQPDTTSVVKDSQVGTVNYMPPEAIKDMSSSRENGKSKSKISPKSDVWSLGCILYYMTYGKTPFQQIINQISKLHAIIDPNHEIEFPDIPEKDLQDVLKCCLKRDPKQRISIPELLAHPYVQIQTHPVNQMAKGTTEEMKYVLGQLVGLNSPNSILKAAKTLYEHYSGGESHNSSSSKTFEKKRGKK
Reported endpoint: Ki

Query: Recorded Ki of Cc1nc(N2CCOCC2)ccc1Nc1nc(NC(C)(C)CO)c2c(C#N)c[nH]c2n1 , please.
Reply: < 0.5 nM

----------
- Method summary: Half life in mouse at 5 mg/kg, iv
- Type: ADME, organism-based
- Experimental parameters: in vivo
Reported endpoint: half-life (h)
Reply with just the number (in h).

Query: half-life lookup needed for CCc1cccc(CC)c1NC(=O)c1ccn2c1CCc1cnc(Nc3ccc(N4CCN(C)CC4)cc3OC)nc1-2 , thanks.
Reply: 2.9

----------
- Tested system: Dual specificity protein kinase TTK (Homo sapiens, UniProt P33981)
- Method summary: Inhibition of MPS1 (510 to 857 residues) catalytic domain (unknown origin) expressed in Escherichia coli after 15 mins by mass-spectrometry analysis
Here the recorded IC50 is given for each entry.
The reply should be a number in nM, with the unit left off.

[[record]]
smiles_notation = "Cc1nc(N2CCOCC2)ccc1Nc1nc(NC2CCOCC2)c2c(C#N)c[nH]c2n1"
test_value = 2.5


# input for lookup
Query: Need IC50, item Cc1nc(N2CCOCC2)ccc1Nc1nc(NC(C)(C)CO)c2c(C#N)c[nH]c2n1
Reply: 5.5
